# Tested on: UACC-62 melanoma
# METHOD: NCI tumour cell line growth inhibition, 48 h
Cut-off 30 µM on TGI, inclusive. At or above means T; below means F.

Record excerpt, results attached:
>  <MOLECULE>
COc1ccc(N[C@H]([C@@H](c2ccccc2)S(=O)c2ccc(C)cc2)C(F)(F)F)cc1 (stereo partly specified)

>  <CATEGORY LABEL>
T

$$$$
>  <MOLECULE>
O=C(O)/C=C/C=C/c1ccc2c(c1)OCO2

>  <CATEGORY LABEL>
T

$$$$
>  <MOLECULE>
Cc1[nH]c(-c2ccccc2)c(O)c1C(=O)OC12CC3CC(CC(C3)C1)C2

>  <CATEGORY LABEL>
T

$$$$
>  <MOLECULE>
CCN(Cc1ccccc1F)c1ccc(CO)c(Cl)c1

>  <CATEGORY LABEL>
F

$$$$
>  <MOLECULE>
COc1ccc(OC)c(C(=O)c2cccc(C(=O)c3cc(OC)ccc3OC)n2)c1

>  <CATEGORY LABEL>
T

$$$$

Given the entry "O=c1[nH]nc(Cc2ccccc2)n1/N=C/c1ccc(/C=N/n2c(Cc3ccccc3)n[nH]c2=O)cc1" , answer whether its TGI meets or surpasses 30 µM. T

Given the entry "Cc1csc(-n2nc(C)cc2C)n1" , answer whether its TGI meets or surpasses 30 µM. T

Given the entry "COc1cccc(C(=O)c2sc(Nc3ccc(N4CCN(C(C)C)CC4)cc3)nc2N)c1" , answer whether its TGI meets or surpasses 30 µM. F

###

Give TGI for every item shown.
# Tested on: MOLT-4 leukemia
# METHOD: NCI tumour cell line growth inhibition, 48 h
Give bare numbers, in µM.

>  <COMPOUND>
COC1C(O)CC(OC2CC(OC3CC(O[C@@H]4C(=O)c5c(cc6cc(OC7CC(OC8CC(O)C(O)C(C)O8)C(O)C(C)O7)c(C)c(O)c6c5O)CC4[C@H](OC)C(=O)C(C)=O)OC(C)C3O)OC(C)C2O)OC1C (some centres undefined)

>  <PARAMETER MEASURED>
TGI

>  <NUMERIC VALUE>
0.0607

$$$$

The reported TGI of the compound O=C(CC(C(=O)c1ccc(F)cc1)c1ccsc1)c1cccs1 (centres undefined) was 89.7

###

Give TGI for every item shown.
# Tested on: SF-295 CNS
# METHOD: NCI tumour cell line growth inhibition, 48 h

Solved entries (count: 2):
>  <COMPOUND>
CC(C)=Cc1cc2c(cc1O)CCC1C2CC[C@@]2(C)C1CC[C@@H]2O (stereo partly specified)

>  <TGI>
7.57 µM

$$$$
>  <COMPOUND>
O=c1[nH]c2nc3ccccc3n2c(O)c1-c1ccccc1

>  <TGI>
> 100 µM

$$$$

Would you mind listing TGI for each of the following compounds?
1. CCOC(=O)c1nnsc1NC(=O)NCCCCCCn1c(=O)n(CCCCCCNC(=O)Nc2snnc2C(=O)OCC)c(=O)n(CCCCCCNC(=O)Nc2snnc2C(=O)OCC)c1=O
2. O=C(O)c1ccc(Cc2ccccc2C(=O)O)cc1
3. CCCCCCCC/C=C(\Br)C(O)C(Br)Br (stereo unspecified)
4. O=C(CC(C(=O)c1ccc(F)cc1)c1ccsc1)c1cccs1 (stereo unspecified)
5. CCCCCNC(=O)c1cc2cc(CCl)ccc2oc1=O
6. CCCCCCCCCCOC1C(C(O)CNCCCN(C)C)OC2OC3(CCCCC3)OC21 (stereo unspecified)
7. CS(=O)(=O)Nc1ccc(Nc2c3ccccc3nc3cc([N+](=O)[O-])ccc23)cc1
8. COc1ccc(OC)c(C(=O)c2cccc(C(=O)c3cc(OC)ccc3OC)n2)c1

> 100 µM
> 100 µM
41.5 µM
> 100 µM
24.7 µM
3.52 µM
7.77 µM
74.5 µM

Would you mind listing TGI for each of the following compounds?
1. O=[N+]([O-])C(=C1NCCN1)C(Cl)=C(Cl)Cl
2. CCC(=O)O[C@@H]([C@H](C)[C@H]1OC(CC)=C(C)C(=O)[C@@H]1C)[C@@H](C)C(=O)CC
3. CCOC(=O)C1C(=O)CN2CCc3c([nH]c4ccccc34)C12C(=O)OCC (stereo unspecified)
4. CC(=O)NNc1nc(C)c(C(=O)NNC(=O)C(=O)Nc2c(C)cccc2C(C)C)s1

1. > 100 µM
2. > 100 µM
3. > 100 µM
4. > 100 µM

Would you mind listing TGI for each of the following compounds?
1. Cc1ccc(C(=Nc2ccccc2)N=P(c2ccccc2)(c2ccccc2)c2ccccc2)cc1
2. CCOC(=O)c1nnsc1NC(=O)NN
3. CC(C)(C)OC/C=C(\Br)CO
4. O=C1/C(=N\n2c(-c3ccncc3)n[nH]c2=S)c2cc(Cl)ccc2N1CN1CCCCC1
5. CN(C)CCCNC(=O)c1c(-c2cccnc2)cnc2ccccc12

7.12 µM
> 100 µM
> 100 µM
> 100 µM
> 100 µM

Would you mind listing TGI for each of the following compounds?
1. O=C(Nc1ccccc1)C(=O)C(C(=O)c1ccccc1F)C1OC(=O)c2ccccc21 (stereo unspecified)
2. CCOC(NC(=O)CC)(C(F)(F)F)C(F)(F)F
3. O=C(c1ccccc1)c1c(C(F)(F)F)n([O-])c2ccc(F)cc2[n+]1=O
4. CCOC(=O)C(Cc1c(C=O)[nH]c2ccccc12)(NC(=O)c1ccccc1)C(=O)OCC
5. O=C(O)CCc1ccc(-c2ccccc2)[nH]1
6. COc1ccc(N2C(=O)/C(=C/c3ccc(N(CCC#N)CCC#N)cc3C)N=C2/C=C\c2ccccc2)cc1
7. Cn1c(-c2ccccc2)c2cc3nc4ccccc4nc3cc2c1-c1ccccc1

> 100 µM
> 100 µM
3.48 µM
33 µM
> 100 µM
> 100 µM
89.8 µM

###

# GI50 per entry for HL-60(TB) leukemia

Solved entries (count: 6):
>  <MOLECULE>
CCOC(=O)c1ccc2c(c1)nc(-c1ccc(Cl)cc1)n2-c1cc(C(C)(C)C)[nH]n1

>  <PARAMETER MEASURED>
GI50

>  <RESULT>
3650 nM

$$$$
>  <MOLECULE>
CC12OC(CC(O)C1O)n1c3ccccc3c3c4c(c5c6ccccc6n2c5c31)C(=O)N(CCN1CCCC1)C4=O (stereo unspecified)

>  <PARAMETER MEASURED>
GI50

>  <RESULT>
562 nM

$$$$
>  <MOLECULE>
Cc1cc2c(cc1C)[n+](=O)c(C(=O)C(C)(C)C)c(C(F)(F)F)n2[O-]

>  <PARAMETER MEASURED>
GI50

>  <RESULT>
5900 nM

$$$$
>  <MOLECULE>
COc1ccc([As]=[As]c2ccc(OC)c(NCS(=O)(=O)O)c2)cc1NCS(=O)(=O)O (stereo unspecified)

>  <PARAMETER MEASURED>
GI50

>  <RESULT>
1510 nM

$$$$
>  <MOLECULE>
CCN(Cc1ccccc1F)c1ccc(CO)c(Cl)c1

>  <PARAMETER MEASURED>
GI50

>  <RESULT>
17700 nM

$$$$
>  <MOLECULE>
COc1ccc(-c2cc(=O)c3cc(C)cnc3[nH]2)cc1

>  <PARAMETER MEASURED>
GI50

>  <RESULT>
2270 nM

$$$$

Would you mind listing GI50 for each of the following molecules?
1. O=C(CI)OCC(COC(=O)CI)OC(=O)CI
2. COc1ccc(C(=O)/C=C/c2c(OC)cc(OC)cc2OC)c(OC)c1
3. COc1cccc(C(=O)c2sc(Nc3ccc(N4CCN(C(C)C)CC4)cc3)nc2N)c1
4. Nc1ccn(C2OC(CO)C(O)C2(F)F)c(=O)n1 (stereo unspecified)

1: 1990 nM; 2: 3640 nM; 3: 661 nM; 4: 28.6 nM

The reported GI50 of the molecule "CCN(Cc1cccnc1)c1ccc(CO)c(Cl)c1" was 22600 nM

###

# Tested on: CAKI-1 renal
# METHOD: NCI tumour cell line growth inhibition, 48 h
Give TGI for every item shown.

Solved entries (count: 2):
>  <MOLECULE>
CCOC(=O)c1ccc2c(c1)nc(-c1ccc(Cl)cc1)n2-c1cc(C(C)(C)C)[nH]n1

>  <TGI>
> 100 µM

$$$$
>  <MOLECULE>
CCCCCCCCCc1c(Cl)nc(Cl)nc1Cl

>  <TGI>
12.1 µM

$$$$

Would you mind listing TGI for each of the following molecules?
1. O=C(O)c1ccc(Cc2ccccc2C(=O)O)cc1
2. C(=Nc1ccccc1C1SCCCS1)c1ccccc1
3. CC(C)=CC1CC(=O)C1(C)Sc1ccccc1 (configuration not stated)

1. > 100 µM
2. > 100 µM
3. > 100 µM

Would you mind listing TGI for each of the following molecules?
1. COC1C(O)CC(OC2CC(OC3CC(O[C@@H]4C(=O)c5c(cc6cc(OC7CC(OC8CC(O)C(O)C(C)O8)C(O)C(C)O7)c(C)c(O)c6c5O)CC4[C@H](OC)C(=O)C(C)=O)OC(C)C3O)OC(C)C2O)OC1C (some centres not stated)
2. O=C(CC(C(=O)c1ccc(F)cc1)c1ccsc1)c1cccs1 (configuration not stated)
3. CCOc1ccccc1N1CSc2nnc(-c3ccccc3)n2C1
4. COc1ccc(-c2cc(=O)c3cc(C)cnc3[nH]2)cc1
5. O=[N+]([O-])C(=C1NCCN1)C(Cl)=C(Cl)Cl
6. O=C1Nc2ccccc2/C1=C/C(=O)c1ccc(N2CCCC2)cc1
7. CC(C)(c1cn(Cc2ccccc2)c2ccccc12)c1cn(Cc2ccccc2)c2ccccc12
8. CN[C@H](C)[C@@H](OC)c1ccccc1

1: > 33.3 µM; 2: > 100 µM; 3: > 100 µM; 4: > 100 µM; 5: > 100 µM; 6: > 100 µM; 7: > 100 µM; 8: > 100 µM

Would you mind listing TGI for each of the following molecules?
1. Cc1cc(-c2ccc[nH]2)on1
2. O=C(CI)OCC(COC(=O)CI)OC(=O)CI
3. CCOC(=O)c1nnsc1NC(=O)NN
4. O=C(c1ccccc1)C(c1ccccc1)C1(O)C(=O)Nc2c(Cl)ccc(Cl)c21 (configuration not stated)
5. CN(C)C(=S)OC(Cn1cncn1)c1ccc(Cl)cc1Cl (configuration not stated)
6. COc1cc(/C=C2\CN(S(=O)(=O)c3ccc(C)cc3)C/C(=C\c3cc(CN4CCOCC4)c(O)c(OC)c3)C2=O)cc(CN2CCOCC2)c1O

1: > 100 µM; 2: 3.91 µM; 3: > 100 µM; 4: 39.8 µM; 5: > 100 µM; 6: > 100 µM

Would you mind listing TGI for each of the following molecules?
1. COc1ccc(-n2c(N)c(C#N)c(C#N)c2-c2cccc([N+](=O)[O-])c2)cc1
2. O=C(c1cc(Cl)ccc1Cl)N1CCN(c2ccc(Cl)c(Cl)c2)CC1
3. NC(N)=N/N=C/c1oc(-c2ccc(S(=O)(=O)O)o2)c(-c2ccc(S(=O)(=O)O)o2)c1[N+](=O)[O-]

1. > 100 µM
2. > 100 µM
3. > 100 µM
